Below: a set of entries, each annotated with reported GI50.
Test system: M19-MEL
Test Details: NCI tumour cell line growth inhibition, 48 h
Activity calls are given as the source filed them. No stated cut-off is given here; in the data, active = GI50 up to about 1.1 µM and inactive = higher.

Compound: CC(=O)OC12COC1CC(O)C1(C)C(=O)C(O)C3=C(C)C(O)CC(O)(C(OC(=O)c4ccccc4)C21)C3(C)C (configuration not stated)
GI50: 7.67 µM (inactive)
//
Compound: COc1ccccc1C1C(Cl)C(=O)N1NC(=O)Cc1ccccc1 (configuration not stated)
GI50: > 100 µM (inactive)
//
Compound: COC(=O)/C(=N\Nc1nnc(C)n1N)C(C#N)c1ccccc1 (configuration not stated)
GI50: 18.5 µM (inactive)
//
Compound: C/C(=N\NC(N)=S)c1ccc(/C(C)=N/NC(N)=S)cc1
GI50: > 100 µM (inactive)
//
Compound: c1cc(C2O[C@H]3CCCN3[C@@H]2c2ccncc2)ccn1 (some centres not stated)
GI50: > 100 µM (inactive)
//
Compound: Nc1c(Br)c(=O)[nH]c(=O)n1COCCO
GI50: > 100 µM (inactive)
//
Compound: C1CSC(=[N+]2CC[N+](=C3SCCS3)CC2)S1
GI50: > 100 µM (inactive)
//
Compound: CCOC(=O)C1=C(O)C(=O)c2ccccc2C1=O
GI50: 22.2 µM (inactive)
//
Compound: CCOC(=O)C1=C(Nc2ccc(Cl)cc2Cl)OCC1=O
GI50: > 100 µM (inactive)
//
Compound: C/C=C/C(=O)[C@@H](O)C(C)C
GI50: > 100 µM (inactive)
//
Compound: COc1ccc(C(O)c2cc(OC)c(OC)c(OC)c2)cc1 (configuration not stated)
GI50: 21 µM (inactive)
//
Compound: COC(=O)C12C3C=CC(O3)C1C1C=CC2O1 (configuration not stated)
GI50: > 100 µM (inactive)

###

Tested on: XF498
Test Details: NCI tumour cell line growth inhibition, 48 h
Calls of active or inactive are those of the source. No stated cut-off is given here; in the data, active = GI50 up to about 1.1 µM and inactive = higher.
Reported Property: GI50

Molecule: O=C1O[C@@H](c2ccc3c(c2)OCO3)C2C(=O)O[C@@H](c3ccc4c(c3)OCO4)C12 (some centres undefined)
Recorded Result: 25.8 µM (inactive)
//
Molecule: Nc1c(Br)c(=O)[nH]c(=O)n1COCCO
Recorded Result: > 100 µM (inactive)
//
Molecule: Cc1ccccc1C(=O)c1cc(O)ccc1O
Recorded Result: > 100 µM (inactive)
//
Molecule: O=C(O)Cc1ccc2c(c1O)C(=O)c1c(ccc(CC(=O)O)c1O)C2=O
Recorded Result: > 100 µM (inactive)
//
Molecule: Nc1nccc2c1ncn2C1C=C(CO)C(O)C1O (centres undefined)
Recorded Result: > 46 µM (inactive)
//
Molecule: C/C=C/C[C@@H](C)[C@@H](O)[C@H]1C(=O)N[C@@H](CC)C(=O)N(C)CC(=O)N(C)[C@@H](CC(C)C)C(=O)N[C@@H](C(C)C)C(=O)N(C)[C@@H](CC(C)C)C(=O)N[C@@H](C)C(=O)N[C@H](C)C(=O)N(C)[C@@H](CC(C)C)C(=O)N(C)[C@@H](CC(C)C)C(=O)N(C)[C@@H](C(C)C)C(=O)N1C
Recorded Result: 3.96 µM (inactive)
//
Molecule: CCOC(=O)C1(Br)S(=O)(=O)OCCOS1(=O)=O
Recorded Result: > 100 µM (inactive)
//
Molecule: COc1ccccc1NC(=O)C1=C(C)NC(C)=C(C(=O)Nc2ccccc2OC)C1c1ccccc1Cl
Recorded Result: 37.7 µM (inactive)
//
Molecule: CC1CCCC2(O1)OC1CC(=O)OC1C1=C2C(=O)c2ccccc2C1=O (centres undefined)
Recorded Result: 2.72 µM (inactive)
//
Molecule: Nc1ccc(/N=N/c2ccc(-c3ccc(/N=N/c4c(S(=O)(=O)O)cc5cc(S(=O)(=O)O)c(/N=N/c6ccc([N+](=O)[O-])cc6)c(N)c5c4O)cc3)cc2)c2cc(S(=O)(=O)O)ccc12
Recorded Result: > 100 µM (inactive)
//
Molecule: COc1ccccc1C1C(Cl)C(=O)N1NC(=O)Cc1ccccc1 (centres undefined)
Recorded Result: > 100 µM (inactive)
//
Molecule: CCC1(Br)C(=O)NC(=O)N(C2CC(O)C(CO)O2)C1N=[N+]=[N-] (centres undefined)
Recorded Result: > 100 µM (inactive)
//
Molecule: COc1ccc(/N=N/C(C(=O)c2ccccc2)C(=O)c2ccccc2)cc1
Recorded Result: 18.2 µM (inactive)
//
Molecule: Cc1cccc(C)c1N1C(=O)C(=O)C(c2nc3ccccc3s2)/C(=N/NC(=O)c2ccccc2O)C1=O (centres undefined)
Recorded Result: 12.4 µM (inactive)
//
Molecule: Clc1cccc(N2CCN(CCCN3CCc4c([nH]c5ccccc45)C3c3cccnc3)CC2)c1 (centres undefined)
Recorded Result: 4.58 µM (inactive)
//
Molecule: C[C@@H](C1CCC2C3C(=CC(=O)[C@@]21C)[C@H](C)[C@]1(CCC(=O)O1)C1OC31)[C@H]1C[C@]2(C)O[C@@](C)(O1)OC2(C)C (some centres undefined)
Recorded Result: > 100 µM (inactive)
//
Molecule: C=C1C(=O)[C@@]23CC[C@H]4[C@@](C)(CCC[C@@]4(C)C(=O)OC)[C@@H]2CC[C@]1(O)C3
Recorded Result: 1.75 µM (inactive)
//
Molecule: CC1=C(/C=C/C(C)=C/C2CC(N(C)C)=CC(=O)O2)C(C)(C)CCC1 (centres undefined)
Recorded Result: 12.4 µM (inactive)
//
Molecule: O=C1C2=C(C3=NCCc4c[nH]c1c43)c1c(cc(Br)c(O)c1Br)CCN2
Recorded Result: 13.9 µM (inactive)
//
Molecule: CCN(CC)c1ccc(/N=N/c2ccc(-c3nc4cccnc4o3)cc2)cc1
Recorded Result: > 100 µM (inactive)
//
Molecule: CN(N=O)C(=O)NC(CCCCNC(=O)OCc1ccccc1)C(=O)OCc1ccccc1 (centres undefined)
Recorded Result: 13.2 µM (inactive)
//
Molecule: COc1nc2c(nc(N)n2C2OC(CO)C(O)C(O)C2O)c(=O)n1C (centres undefined)
Recorded Result: 75.3 µM (inactive)
//
Molecule: Cc1ccc(C)c(N2C(=O)C(=O)C(c3nc4ccccc4s3)/C(=N/N)C2=O)c1 (centres undefined)
Recorded Result: > 100 µM (inactive)
//
Molecule: COc1ccc2c(c1)CCCC1C3=NCCC3(C)CSC21 (centres undefined)
Recorded Result: > 100 µM (inactive)
//
Molecule: CCCCCC/C=C1\CCC(CN(C)C)C1=O (centres undefined)
Recorded Result: 3.31 µM (inactive)
//
Molecule: COC(=O)/C(=N/O)C(C(=O)C=C(C)C)C(=O)C(=O)Nc1nc2ccc([N+](=O)[O-])cc2s1 (centres undefined)
Recorded Result: 58.7 µM (inactive)
//
Molecule: CC(=O)OC12COC1CC(O)C1(C)C(=O)C(O)C3=C(C)C(O)CC(O)(C(OC(=O)c4ccccc4)C21)C3(C)C (centres undefined)
Recorded Result: 2.36 µM (inactive)
//
Molecule: Clc1ccc(-c2c(C3=NCCCN3)nnn2-c2ccccc2)cc1
Recorded Result: > 100 µM (inactive)
//
Molecule: CCOC(=O)C(C)c1cc(C2(C)OCCO2)c(C)o1 (centres undefined)
Recorded Result: > 100 µM (inactive)

###

System: NCI/ADR-RES
Test Details: NCI tumour cell line growth inhibition, 48 h
Calls of active or inactive are those of the source. Cut-off read from the data, not from the text of the source: active = GI50 up to about 1.1 µM and inactive = higher.
Outcome codes: y for active, n for inactive

Molecule: CCOC(=O)c1ccc(N(CCOS(C)(=O)=O)CCOS(C)(=O)=O)cc1
Group: n
--
Molecule: Clc1ccc(-c2noc(CN3CCCCC3)n2)cc1
Group: n
--
Molecule: O=C1NC(N2CCCC(CO)C2)=N/C1=C\c1cccs1 (stereo not given)
Group: n
--
Molecule: O=C1Cc2c([nH]c3ccc(Br)cc23)-c2cc(Br)ccc2N1
Group: n
--
Molecule: C=C[C@@]1(O)CCCC[C@@H]1CC(Sc1ccccc1)Sc1ccccc1
Group: n
--
Molecule: Oc1ccc2c(c1)OCC(O)(c1ccccc1O)C2 (stereo not given)
Group: n
--
Molecule: CCCCCC(/C=N/NC(N)=S)C(O)(C(F)(F)F)C(F)(F)F (stereo not given)
Group: n
--
Molecule: COc1cc([C@@H]2c3cc4c(c(O)c3C[C@H]3COC(=O)[C@@H]32)OCO4)cc(OC)c1O
Group: y
--
Molecule: CC[C@@H]1CC[C@@H]2[C@H](CC[C@]3(C)[C@@H](OS(=O)(=O)c4ccc(C)cc4)CC[C@@H]23)[C@H]1COS(=O)(=O)c1ccc(C)cc1
Group: n
--
Molecule: S=c1ssc2c3ssc(=S)c3n(Cc3ccccc3)c12
Group: n

###

Below: a set of entries, each annotated with reported GI50.
System: COLO 205
Test Details: NCI tumour cell line growth inhibition, 48 h
The source made the active and inactive calls. No stated cut-off is given here; in the data, active = GI50 up to about 1.1 µM and inactive = higher.
Reported Property: GI50

Mol Smiles: COC(=O)[C@@H]1C[C@@H]2c3ccccc3N(S(=O)(=O)c3ccccc3)[C@@H]2N1C(=O)OC
Recorded Result: > 100 µM (inactive)
//
Mol Smiles: CC(C)CCC[C@@H](C)[C@H]1CC[C@H]2C3=C[C@H](OS(=O)(=O)O)[C@@]4(O)C[C@@H](O)CC[C@]4(C)[C@@]3(O)CC[C@]12C
Recorded Result: > 100 µM (inactive)
//
Mol Smiles: Cc1cc(NS(=O)(=O)c2ccc(Nc3c4ccccc4nc4c(C(=O)Nc5ccc(S(=O)(=O)N=C(N)N)cc5)cccc34)cc2)no1
Recorded Result: > 100 µM (inactive)
//
Mol Smiles: CCc1nc(N)nc(N)c1-c1ccc(NCCN)c([N+](=O)[O-])c1
Recorded Result: 14.2 µM (inactive)
